tgt: Ubiquitin carboxyl-terminal hydrolase 47 (Homo sapiens)
Sequence (Q96K76 whole entry): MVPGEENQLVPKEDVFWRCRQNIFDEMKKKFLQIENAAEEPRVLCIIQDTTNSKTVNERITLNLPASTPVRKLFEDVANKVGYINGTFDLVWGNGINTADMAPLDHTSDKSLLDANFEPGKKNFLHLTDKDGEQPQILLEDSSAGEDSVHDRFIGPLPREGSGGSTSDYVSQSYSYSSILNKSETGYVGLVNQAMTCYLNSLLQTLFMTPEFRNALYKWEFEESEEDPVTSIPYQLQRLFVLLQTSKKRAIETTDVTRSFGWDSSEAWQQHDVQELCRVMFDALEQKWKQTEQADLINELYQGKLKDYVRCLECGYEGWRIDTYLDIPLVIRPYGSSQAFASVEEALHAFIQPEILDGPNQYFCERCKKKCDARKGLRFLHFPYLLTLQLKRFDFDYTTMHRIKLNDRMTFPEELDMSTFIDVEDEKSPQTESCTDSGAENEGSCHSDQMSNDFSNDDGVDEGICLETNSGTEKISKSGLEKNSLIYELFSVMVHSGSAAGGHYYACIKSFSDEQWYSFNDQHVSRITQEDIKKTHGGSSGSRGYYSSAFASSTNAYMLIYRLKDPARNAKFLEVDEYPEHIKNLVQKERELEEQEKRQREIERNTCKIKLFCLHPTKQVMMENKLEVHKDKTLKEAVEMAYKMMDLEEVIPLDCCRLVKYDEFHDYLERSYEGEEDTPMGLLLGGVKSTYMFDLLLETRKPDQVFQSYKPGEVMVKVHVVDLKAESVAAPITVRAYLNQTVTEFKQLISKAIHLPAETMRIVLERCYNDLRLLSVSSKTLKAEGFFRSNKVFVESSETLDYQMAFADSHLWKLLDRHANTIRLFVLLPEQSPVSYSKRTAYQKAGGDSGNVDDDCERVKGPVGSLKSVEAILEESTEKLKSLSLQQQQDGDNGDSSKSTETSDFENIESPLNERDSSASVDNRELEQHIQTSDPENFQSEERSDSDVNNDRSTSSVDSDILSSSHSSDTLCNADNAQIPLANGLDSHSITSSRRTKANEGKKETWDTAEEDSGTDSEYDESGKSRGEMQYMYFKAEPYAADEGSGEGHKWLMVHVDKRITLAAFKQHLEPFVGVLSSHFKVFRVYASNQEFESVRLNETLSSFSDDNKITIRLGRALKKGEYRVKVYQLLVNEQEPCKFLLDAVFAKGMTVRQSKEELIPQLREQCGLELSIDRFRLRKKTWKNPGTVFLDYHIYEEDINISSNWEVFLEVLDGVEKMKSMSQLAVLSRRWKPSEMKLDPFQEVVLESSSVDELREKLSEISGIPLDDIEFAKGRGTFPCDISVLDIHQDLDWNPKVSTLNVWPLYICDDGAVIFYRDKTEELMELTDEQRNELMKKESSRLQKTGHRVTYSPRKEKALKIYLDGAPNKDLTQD
procedure text: Inhibition of human USP47 using Ub-EKL as substrate by SDS-PAGE assay
quantity measured: pEC50
The read-out pEC50 is expressed as -log10 of concentration in moles per litre.

These solved cases illustrate the format of a correct answer.
> print(dat)
                                   molecule                                       tgt  quantity.measured  recorded.measurement
1  CS(=O)(=O)c1cccc(NC(=O)c2cc([N+](=O)[O-])c(Sc3c(Cl)cncc3Cl)s2)c1  Ubiquitin carboxyl-terminal hydrolase 47 (Homo sapiens)              pEC50                  5.85
2  O=C(Nc1ccc2c(c1)S(=O)(=O)CC2)c1cc([N+](=O)[O-])c(Sc2c(Cl)cncc2Cl)s1  Ubiquitin carboxyl-terminal hydrolase 47 (Homo sapiens)              pEC50                  5.69
3  CN(C)CCNC1CS(=O)(=O)c2cc(NC(=O)c3cc([N+](=O)[O-])c(Sc4c(Cl)cncc4Cl)s3)ccc21 (centres undefined)  Ubiquitin carboxyl-terminal hydrolase 47 (Homo sapiens)              pEC50                  6.70

Now consider the entry below.
## Task Quick check: pEC50 of CS(=O)(=O)c1ccc(NC(=O)c2cc([N+](=O)[O-])c(Sc3c(Cl)cncc3Cl)s2)cc1 ?
## Result 4.93

---

Tested on: HCT-116
procedure text: Anticancer activity against human HCT-116 cells assessed as cell growth inhibition incubated for 6 days by MTT assay
Assay type: functional
applied conditions: HCT-116, 144 h, time 6 day, read-out: LD50 (the source's name)
As shown below, each of these compounds has a reported CC50 value.

> print(dat)
                                 mol.smiles  recorded.measurement
1  C[C@H](CC(=O)O)[C@H]1CC[C@H]2[C@@H]3[C@H](O)C[C@@H]4C[C@H](O)CC[C@]4(C)[C@H]3C[C@H](O)[C@]12C               > 50 µM
2  C[C@H](CC(=O)O)[C@H]1CC[C@H]2[C@@H]3CC[C@@H]4CC(=O)CC[C@]4(C)[C@H]3CC[C@]12C               > 50 µM
3  CC(=O)O[C@@H]1CC[C@@]2(C)[C@H](CC[C@@H]3[C@@H]2CC[C@]2(C)[C@@H]([C@H](C)CC(=O)O)CC[C@@H]32)C1               23.2 µM

## Task Quick check: CC50 of COC(=O)C[C@@H](C)[C@H]1CC[C@H]2[C@@H]3CC[C@@H]4C[C@H](O)CC[C@]4(C)[C@H]3CC[C@]12C ?
## Result 20.5 µM

## Task Quick check: CC50 of C[C@H](CC(=O)NCC(=O)O)[C@H]1CC[C@H]2[C@@H]3CC[C@@H]4C[C@H](O)CC[C@]4(C)[C@H]3CC[C@]12C ?
## Result > 100 µM

## Task Quick check: CC50 of C[C@H](CC(=O)NO)[C@H]1CC[C@H]2[C@@H]3CC[C@@H]4C[C@H](O)CC[C@]4(C)[C@H]3CC[C@]12C ?
## Result 27.8 µM

## Task Quick check: CC50 of C[C@H](CC(=O)NCC#N)[C@H]1CC[C@H]2[C@@H]3CC[C@@H]4C[C@H](O)CC[C@]4(C)[C@H]3C[C@H](O)[C@]12C ?
## Result 28 µM

## Task Quick check: CC50 of C[C@H](CC(N)=O)[C@H]1CC[C@H]2[C@@H]3CC[C@@H]4C[C@H](O)CC[C@]4(C)[C@H]3CC[C@]12C ?
## Result 24.5 µM

## Task Quick check: CC50 of C[C@H](CC(=O)NCCS(=O)(=O)O)[C@H]1CC[C@H]2[C@@H]3[C@H](O)C[C@@H]4C[C@H](O)CC[C@]4(C)[C@H]3C[C@H](O)[C@]12C ?
## Result > 50 µM

## Task Quick check: CC50 of C[C@H](CC(=O)N1CCOCC1)[C@H]1CC[C@H]2[C@@H]3CC[C@@H]4C[C@H](O)CC[C@]4(C)[C@H]3CC[C@]12C ?
## Result 8.2 µM

---

tgt: Ubiquitin carboxyl-terminal hydrolase 7 (Homo sapiens, UniProt Q93009)
Sequence (Q93009 whole entry): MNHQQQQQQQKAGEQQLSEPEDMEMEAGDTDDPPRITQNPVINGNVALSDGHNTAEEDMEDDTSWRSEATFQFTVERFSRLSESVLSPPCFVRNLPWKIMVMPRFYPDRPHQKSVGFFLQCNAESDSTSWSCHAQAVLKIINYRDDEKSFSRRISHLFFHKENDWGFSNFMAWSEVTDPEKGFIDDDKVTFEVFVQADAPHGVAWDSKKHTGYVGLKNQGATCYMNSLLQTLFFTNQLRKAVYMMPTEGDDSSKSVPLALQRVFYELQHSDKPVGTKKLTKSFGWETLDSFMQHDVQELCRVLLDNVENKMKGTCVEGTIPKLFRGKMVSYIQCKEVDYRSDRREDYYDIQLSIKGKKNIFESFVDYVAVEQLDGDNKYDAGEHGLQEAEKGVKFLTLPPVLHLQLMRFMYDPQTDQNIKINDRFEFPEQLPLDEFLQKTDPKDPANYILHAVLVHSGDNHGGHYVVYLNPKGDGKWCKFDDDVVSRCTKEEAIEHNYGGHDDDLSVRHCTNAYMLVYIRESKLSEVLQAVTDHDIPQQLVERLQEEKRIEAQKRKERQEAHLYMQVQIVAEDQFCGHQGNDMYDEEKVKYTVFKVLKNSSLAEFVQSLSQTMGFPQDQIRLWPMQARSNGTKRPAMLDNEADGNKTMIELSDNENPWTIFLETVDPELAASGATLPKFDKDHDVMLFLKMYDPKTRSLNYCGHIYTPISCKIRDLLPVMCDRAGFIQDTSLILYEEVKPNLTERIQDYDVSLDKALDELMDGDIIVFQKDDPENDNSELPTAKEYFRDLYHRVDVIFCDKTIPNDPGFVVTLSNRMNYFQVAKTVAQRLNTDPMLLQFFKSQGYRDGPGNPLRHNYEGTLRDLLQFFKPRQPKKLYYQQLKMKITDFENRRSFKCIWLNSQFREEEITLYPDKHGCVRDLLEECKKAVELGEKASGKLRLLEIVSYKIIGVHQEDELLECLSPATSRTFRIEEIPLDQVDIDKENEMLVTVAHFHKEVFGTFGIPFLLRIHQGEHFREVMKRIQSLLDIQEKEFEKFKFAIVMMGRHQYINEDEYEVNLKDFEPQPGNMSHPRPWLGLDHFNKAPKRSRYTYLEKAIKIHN
procedure text: Inhibition of human USP7 using Ub-EKL as substrate by SDS-PAGE assay
pEC50: −log10 of the molar value.
Rule: pEC50 of 6 or more gives YES; anything lower gives NO.

> print(dat)
                                   compound  label
1  CS(=O)(=O)c1ccc(NC(=O)c2cc([N+](=O)[O-])c(Sc3c(Cl)cncc3Cl)s2)cc1     NO

## Task In plain terms: is recorded pEC50 at least 6 for N#Cc1cc(C(=O)Nc2ccc3c(c2)S(=O)(=O)C=C3)sc1Sc1c(Cl)cncc1Cl ?
## Result YES

## Task In plain terms: is recorded pEC50 at least 6 for CS(=N)(=O)c1cccc(NC(=O)c2cc([N+](=O)[O-])c(Sc3c(Cl)cncc3Cl)s2)c1 (stereo not drawn) ?
## Result NO

## Task In plain terms: is recorded pEC50 at least 6 for CC1CS(=O)(=O)c2cc(NC(=O)c3cc([N+](=O)[O-])c(Sc4c(Cl)cncc4Cl)s3)ccc21 (stereo not drawn) ?
## Result YES

## Task In plain terms: is recorded pEC50 at least 6 for O=C(Nc1cccc(S(=O)(=O)C2CC2)c1)c1cc([N+](=O)[O-])c(Sc2c(Cl)cncc2Cl)s1 ?
## Result YES

## Task In plain terms: is recorded pEC50 at least 6 for O=C(NC1CCS(=O)(=O)C2COCCC12)c1cc([N+](=O)[O-])c(Sc2c(Cl)cncc2Cl)s1 (stereo not drawn) ?
## Result NO

## Task In plain terms: is recorded pEC50 at least 6 for O=C(Nc1ccc2c(c1)S(=O)(=O)C=C2)c1cc([N+](=O)[O-])c(Sc2c(Cl)cncc2Cl)s1 ?
## Result YES

## Task In plain terms: is recorded pEC50 at least 6 for O=C(Nc1ccc2c(c1)S(=O)(=O)CC2)c1cc([N+](=O)[O-])c(Sc2c(Cl)cncc2Cl)s1 ?
## Result YES

---

tgt: Ubiquitin carboxyl-terminal hydrolase 7 (Homo sapiens)
procedure text: Inhibition of human USP7 using ubiquitin-Rho110 as substrate incubated for 1 hrs
quantity measured: IC50 (µM)
Write it as a number; the unit µM goes unstated.

## Task Quick check: IC50 of CC(=O)Nc1cccc(-c2cnc(N)c(-c3ccc(O)cc3)c2C)c1 ?
## Result 42

---

tgt: Ubiquitin carboxyl-terminal hydrolase 5 (Homo sapiens, UniProt P45974)
Sequence (P45974 whole entry): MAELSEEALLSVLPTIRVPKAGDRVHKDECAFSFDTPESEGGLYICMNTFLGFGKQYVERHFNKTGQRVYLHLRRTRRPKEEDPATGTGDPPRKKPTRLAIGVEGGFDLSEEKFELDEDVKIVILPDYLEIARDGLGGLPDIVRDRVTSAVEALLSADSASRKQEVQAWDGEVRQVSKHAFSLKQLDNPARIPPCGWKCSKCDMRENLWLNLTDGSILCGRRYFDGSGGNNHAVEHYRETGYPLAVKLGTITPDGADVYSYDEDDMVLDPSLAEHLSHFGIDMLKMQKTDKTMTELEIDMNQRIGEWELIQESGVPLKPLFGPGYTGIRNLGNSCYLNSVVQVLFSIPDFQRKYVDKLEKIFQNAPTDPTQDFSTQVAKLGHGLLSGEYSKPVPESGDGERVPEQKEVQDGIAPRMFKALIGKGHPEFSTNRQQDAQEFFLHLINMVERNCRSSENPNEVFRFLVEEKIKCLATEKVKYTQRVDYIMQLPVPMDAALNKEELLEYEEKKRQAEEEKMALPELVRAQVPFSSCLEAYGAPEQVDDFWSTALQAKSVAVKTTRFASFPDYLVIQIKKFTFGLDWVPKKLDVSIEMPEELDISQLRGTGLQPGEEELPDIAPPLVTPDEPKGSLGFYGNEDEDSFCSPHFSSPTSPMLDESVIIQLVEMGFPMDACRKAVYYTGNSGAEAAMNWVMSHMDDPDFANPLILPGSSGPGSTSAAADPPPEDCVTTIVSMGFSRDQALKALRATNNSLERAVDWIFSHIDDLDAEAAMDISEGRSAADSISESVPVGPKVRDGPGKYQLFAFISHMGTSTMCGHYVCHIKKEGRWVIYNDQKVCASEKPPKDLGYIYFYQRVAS
procedure text: Inhibition of human his tagged USP5 by Westernblot analysis
pIC50: −log10 of the molar value.
quantity measured: pIC50

## Task Quick check: pIC50 of O=C(NCCc1ccc(Cl)cc1)c1ccc2nc3c(c(Cl)c2c1)CCCC3 ?
## Result < 3.70

---

tgt: UniProt:Q93009
procedure text: Inhibition of human USP7 using Ub-AMC as substrate
quantity measured: IC50 (nM)
Write it as a number; the unit nM goes unstated.

These solved cases illustrate the format of a correct answer.
> print(dat)
                                   molecule  quantity.measured  recorded.measurement
1  CC(CC(=O)N1CCC(O)(Cn2cnc3cc(NC(=O)CCN4CCN(C)CC4)ccc3c2=O)CC1)c1ccccc1 (configuration not stated)               IC50                   560
2  C[C@H](CC(=O)N1CCC(O)(Cn2cnc3cc(NC(=O)CCN(C)C)ccc3c2=O)CC1)c1ccccc1               IC50                   130
3  CC(CC(=O)N1CCC(O)(Cn2cnc3cc(NC(=O)CCn4ccnc4)ccc3c2=O)CC1)c1ccccc1 (configuration not stated)               IC50                   240
4  C[C@H](CC(=O)N1CCC(O)(Cn2cnc3cc(Cl)ccc3c2=O)CC1)c1ccccc1               IC50                   420
5  CC(CC(=O)N1CCC(O)(Cn2cnc3cc(NC(=O)CCN4CCCCC4)ccc3c2=O)CC1)c1ccccc1 (configuration not stated)               IC50                   350

## Task Quick check: IC50 of C[C@H](CC(=O)N1CCC(O)(Cn2cnc3cc(NC(=O)CCN4CCN(C)CC4)ccc3c2=O)CC1)c1ccccc1 ?
## Result 190

## Task Quick check: IC50 of C[C@@H](CC(=O)N1CCC(O)(Cn2cnc3cc(Cl)ccc3c2=O)CC1)c1ccccc1 ?
## Result 40000
